All figures here come from patent US20230348603A1.

normalized maximum binding nm shift values, listed per item
# Measured Target: T1, Human VSIG4-L-Fc (human)
# T1 construct: also called hVSIG4-L-Fc; hVSIG4-L
# T1 sequence (chain, as listed by the source limits assumed): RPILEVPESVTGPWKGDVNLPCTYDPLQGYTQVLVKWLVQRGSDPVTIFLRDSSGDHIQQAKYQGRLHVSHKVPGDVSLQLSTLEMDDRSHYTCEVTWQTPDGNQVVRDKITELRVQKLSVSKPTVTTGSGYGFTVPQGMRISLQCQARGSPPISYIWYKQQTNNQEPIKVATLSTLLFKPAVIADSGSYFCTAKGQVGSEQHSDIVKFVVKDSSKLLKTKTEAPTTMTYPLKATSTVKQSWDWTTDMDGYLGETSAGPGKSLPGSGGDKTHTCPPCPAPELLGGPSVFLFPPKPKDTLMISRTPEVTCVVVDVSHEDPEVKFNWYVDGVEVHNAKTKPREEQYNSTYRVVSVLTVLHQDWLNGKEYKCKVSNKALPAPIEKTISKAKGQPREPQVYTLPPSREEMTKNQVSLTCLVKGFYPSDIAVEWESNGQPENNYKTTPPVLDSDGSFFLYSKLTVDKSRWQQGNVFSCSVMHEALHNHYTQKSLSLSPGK
# Assay Name: BLI binning on hVSIG4-L-Fc, competitor 15C03 first;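 further: normalized to binding of second antibody without first competitor antibody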
Note: unit normalized is implicit; provide only the numeric part.

For orientation, consider the following solved cases.
14D12 mouse/human chimeric IgG4 (S228P) kappa (antibody, V domains shown) VH: QIQLVQSGPELKKPGETVKISCKASGYTFTNYGMNWVKQTPGKGLKWMGLINTYTGEPTYADDFKGRFAFSLETSASTAYLQINNLKNEDMATYFCARERIYGYLHYFDYWGQGTTLTVSS VL: DVVMTQTPASLAVSLGQRATISCKASQSVDYDGDSYMNWYQQKPGQPPKLLIYAASNLESGIPARFSGSGSGTDFTLNIHPVEEEDAATYYCQQSNEDPRTFGGGTKLEIKR : 0.59
16E03 mouse/human chimeric IgG4 (S228P) kappa (antibody, V domains shown) VH: QVQLQQSGAELARPGASVKMSCKASGYTFTSYTMHWIKQRPGQGLEWIGYINPSSGHTYYNQKFKDKATLTPDKSSSTAYMQLTSLTSEDSAVYYCARRIPTAYAMDYWGQGTSVTVSS VL: EIQMTQSHKFMSTSVGDRVSITCKASQDVGTAVAWYQQKPGQSPKLLIYWASTRHTGVPDRFTGSGSGTDFTLTISNVQSEDLADYFCQQYSSYPLTFGAGTKLELKR : 0.1

Now let's try a different one.
Lab book: normalized maximum binding nm shift of 14C05 mouse/human chimeric IgG4 (S228P) kappa (antibody, V domains shown) VH: EVMLVESGPELKKPGETVKISCKASGYTFTNYGMNWVKQAPGKGLKWMGSINTYTGEATYADDFKGRFAFSLETSANTAYLQIDNLKNEDTATYFCARGDYYGRGTWFAYWGQGTLVTVSA VL: ETTVTQSHKFMSTSVGDRVSITCKASQDVSTAVAWYQQKPGQSPKLLIYSASYRYPGVPDRFTGSGSGTDFTFTISSVQAEDLAVYYCQQDYSSPWTFGGGTKLEIKR noted as 0.38
